- study system: His tagged PTPN2 (TC45) protein (Homo sapiens (Human))
- measurement description: PTPN2 Mobility Shift Assay (MSA)
- Format: biochemical
- condition details: enzyme 0.5 nM, substrate 2 μM
pIC50: −log10 of the molar value.
observed property: pIC50

The cases that follow already have their pIC50 on record.
compound	study system	pIC50
CC(C)(C)OC(=O)N1CCC(CNC[C@H]2Cc3c(cc(O)c(N4CC(=O)NS4(=O)=O)c3F)O2)CC1 [Compound 124]	His tagged PTPN2 (TC45) protein (Homo sapiens (Human))	7.00 to 8.00
O=C1CN(c2c(O)cc3c(c2F)C[C@H](CNCC2CCC2)O3)S(=O)(=O)N1 [Compound 119]	His tagged PTPN2 (TC45) protein (Homo sapiens (Human))	7.00 to 8.00
O=C1CN(c2c(O)cc3c(c2F)C[C@H](CNCCC2CCCC2)O3)S(=O)(=O)N1 [Compound 103]	His tagged PTPN2 (TC45) protein (Homo sapiens (Human))	> 8.00

Input: Can you share its pIC50? I mean this compound: O=C1CN(c2c(O)cc3c(c2F)CC(CNCCC2COC2)N3)S(=O)(=O)N1 (stereo not shown) [Compound 144]
Output: 7.00 to 8.00

====

Dihydrobenzofuran or Indoline x-fold>potency cellular overview
- System: IFNγ-induced STAT1 phosphorylation (pSTAT1) in B16F10 cells
- measurement description: B16F10 Phospho-STAT1 HTRF proximal pharmacodynamic (PD) assay
- Type: cell-based, murine
- condition details: x-fold versus corresponding chromane comparator, B16F10 pSTAT1

molecule	endpoint result
CC1=C(CCNC[C@H]2Cc3c(cc(O)c(N4CC(=O)NS4(=O)=O)c3F)O2)C(C)(C)CCC1	~1.0
O=C1CN(c2c(O)cc3c(c2F)C[C@H](CNCC2C4CCCC42)O3)S(=O)(=O)N1 (mixture of isomers)	>13.6

Input: Can you share its Dihydrobenzofuran or Indoline x-fold>potency cellular? I mean this molecule: O=C1CN(c2c(O)cc3c(c2F)C[C@H](CNCCCc2ccccc2)O3)S(=O)(=O)N1
Output: >4.6

====

- study system: His tagged PTPN2 (TC45) protein (Homo sapiens (Human), UniProt P17706)
- Sequence (P17706 other isoform, or with tags, fused parts or gaps): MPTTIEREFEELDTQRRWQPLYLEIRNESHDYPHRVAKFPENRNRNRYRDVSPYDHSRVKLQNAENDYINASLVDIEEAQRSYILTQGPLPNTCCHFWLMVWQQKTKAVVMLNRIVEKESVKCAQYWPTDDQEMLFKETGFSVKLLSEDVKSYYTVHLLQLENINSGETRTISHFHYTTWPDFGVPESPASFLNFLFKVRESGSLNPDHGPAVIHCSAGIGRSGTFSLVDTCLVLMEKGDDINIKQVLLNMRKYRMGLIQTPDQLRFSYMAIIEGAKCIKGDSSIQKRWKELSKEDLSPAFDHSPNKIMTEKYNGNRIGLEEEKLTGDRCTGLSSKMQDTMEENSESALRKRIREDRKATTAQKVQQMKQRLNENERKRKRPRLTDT
- measurement description: PTPN2 Mobility Shift Assay (MSA)
- Type: biochemical
- condition details: enzyme 0.5 nM, substrate 2 μM
observed property: IC50

The cases that follow already have their IC50 on record.
molecule	study system	observed property	endpoint result
O=C1CN(c2c(O)cc3c(c2F)C[C@H](CNCC2CCCC2)O3)S(=O)(=O)N1	His tagged PTPN2 (TC45) protein (Homo sapiens (Human), UniProt P17706)	IC50	10 to 100 nM
O=C1CN(c2c(O)cc3c(c2F)C[C@H](CNCCC(F)(F)F)N3)S(=O)(=O)N1	His tagged PTPN2 (TC45) protein (Homo sapiens (Human), UniProt P17706)	IC50	10 to 100 nM
O=C1CN(c2c(O)cc3c(c2F)C[C@H](CNCC2CC(F)(F)C2)N3)S(=O)(=O)N1	His tagged PTPN2 (TC45) protein (Homo sapiens (Human), UniProt P17706)	IC50	10 to 100 nM
CC(C)(CO)CCNC[C@H]1Cc2c(cc(O)c(N3CC(=O)NS3(=O)=O)c2F)O1	His tagged PTPN2 (TC45) protein (Homo sapiens (Human), UniProt P17706)	IC50	10 to 100 nM
O=C1CN(c2c(O)cc3c(c2F)C[C@H](CNCC2CCCC2)N3)S(=O)(=O)N1	His tagged PTPN2 (TC45) protein (Homo sapiens (Human), UniProt P17706)	IC50	10 to 100 nM

Input: Hello, I am looking for reported IC50 with His tagged PTPN2 (TC45) protein (Homo sapiens (Human), UniProt P17706) for O=C1CN(c2c(O)cc3c(c2F)C[C@H](CNCC2COC2)O3)S(=O)(=O)N1 . Could you help?
Output: 10 to 100 nM

Input: And the next one, O=C1CN(c2c(O)cc3c(c2F)C[C@H](CNCCC2(CO)CCCC2)O3)S(=O)(=O)N1 ?
Output: 10 to 100 nM

Input: And the next one, CCCC(C)NC[C@H]1Cc2c(cc(O)c(N3CC(=O)NS3(=O)=O)c2F)N1 (stereo partly shown) ?
Output: < 10 nM

Input: And the next one, CCC(C)CNC[C@H]1Cc2c(cc(O)c(N3CC(=O)NS3(=O)=O)c2F)O1 (stereo partly shown) ?
Output: 10 to 100 nM

Input: And the next one, O=C1CN(c2c(O)cc3c(c2F)C[C@H](CNCCC2CCOCC2)O3)S(=O)(=O)N1 ?
Output: < 10 nM
